Each entry below carries its reported Percent Cytotoxicity.
Tested on: SW620 (colon)
Assay: MTT cytotoxicity assay, 72 hours (Example 13)
Format: cell-based, human
Conditions: SW620, 1 nM
Non-standard residues stand in square brackets, D forms with d. Residues, ends and D or L forms follow the SMILES beside them. Aib = CC(C)(N)C(=O)O

# COMPOUND, UNIT_ANNOTATION, Percent Cytotoxicity
measured = [
    ("CC[C@H](C)[C@H](NC(=O)[C@H](Cc1c[nH]cn1)NC(=O)C(C)(C)NC(=O)[C@@H](NC(=O)[C@H](C)NC(=O)[C@H](Cc1c[nH]c2ccccc12)NC(=O)[C@H](CCC(N)=O)NC(=O)[C@H](N)Cc1ccccc1)C(C)C)C(N)=O [SEQ ID: 7, D-Phe-Gln-Trp-Ala-Val-Aib-His-Ile-NH2] (H-[dF]QWAV[Aib]HI-NH2; N-terminus assumed)", "%", 32.0),
    ("CC[C@H](C)[C@H](NC(=O)[C@H](Cc1c[nH]cn1)NC(=O)CNC(=O)[C@@H](NC(=O)C(C)(C)NC(=O)[C@H](Cc1c[nH]c2ccccc12)NC(=O)[C@H](CCC(N)=O)NC(=O)[C@H](N)Cc1ccccc1)C(C)C)C(N)=O [SEQ ID: 6, D-Phe-Gln-Trp-Aib-Val-Gly-His-Ile-NH2] (H-[dF]QW[Aib]VGHI-NH2; N-terminus assumed)", "%", 33.5),
    ("CC(C)C[C@H](NC(=O)[C@H](Cc1c[nH]cn1)NC(=O)CNC(=O)[C@@H](NC(=O)C(C)(C)NC(=O)[C@H](Cc1c[nH]c2ccccc12)NC(=O)[C@H](CCC(N)=O)NC(=O)[C@H](N)Cc1ccccc1)C(C)C)C(N)=O [SEQ ID: 4, D-Phe-Gln-Trp-Aib-Val-Gly-His-Leu-NH2] (H-[dF]QW[Aib]VGHL-NH2; N-terminus assumed)", "%", 27.8),
    ("CCCC(CCC)(NC(=O)[C@@H](NC(=O)[C@H](C)NC(=O)[C@@H](Cc1c[nH]c2ccccc12)NC(=O)[C@H](CCC(N)=O)NC(=O)[C@H](N)Cc1ccccc1)C(C)C)C(=O)N[C@@H](Cc1c[nH]cn1)C(=O)N[C@@H](CC(C)C)C(N)=O", "%", 20.6),
    ("CC(C)C[C@H](NC(=O)[C@H](Cc1c[nH]cn1)NC(=O)C(C)(C)NC(=O)[C@@H](NC(=O)[C@H](C)NC(=O)[C@@H](Cc1c[nH]c2ccccc12)NC(=O)[C@H](CCC(N)=O)NC(=O)[C@H](N)Cc1ccccc1)C(C)C)C(N)=O [SEQ ID: 5, D-Phe-Gln-D-Trp-Ala-Val-Aib-His-Leu-NH2] (H-[dF]Q[dW]AV[Aib]HL-NH2; N-terminus assumed)", "%", 29.7),
]

----------
Tested on: PA-1 (ovary)
Test: MTT cytotoxicity assay, 72 hours (Example 13)
Assay type: cell-based, human
Conditions: PA-1, 100 PM
Non-standard residues stand in square brackets, D forms with d. Residues, ends and D or L forms follow the SMILES beside them. Aib = CC(C)(N)C(=O)O
Reported Percent Cytotoxicity values are given for each entry in this list.

# COMPOUND, Percent Cytotoxicity / %
data = [
    ("CC[C@H](C)[C@H](NC(=O)[C@H](Cc1c[nH]cn1)NC(=O)CNC(=O)[C@@H](NC(=O)C(C)(C)NC(=O)[C@H](Cc1c[nH]c2ccccc12)NC(=O)[C@H](CCC(N)=O)NC(=O)[C@H](N)Cc1ccccc1)C(C)C)C(N)=O [SEQ ID: 6, D-Phe-Gln-Trp-Aib-Val-Gly-His-Ile-NH2] (H-[dF]QW[Aib]VGHI-NH2; N-terminus assumed)", 11.1),
    ("CC(C)C[C@H](NC(=O)[C@H](Cc1c[nH]cn1)NC(=O)C(C)(C)NC(=O)[C@@H](NC(=O)[C@H](C)NC(=O)[C@@H](Cc1c[nH]c2ccccc12)NC(=O)[C@H](CCC(N)=O)NC(=O)[C@H](N)Cc1ccccc1)C(C)C)C(N)=O [SEQ ID: 5, D-Phe-Gln-D-Trp-Ala-Val-Aib-His-Leu-NH2] (H-[dF]Q[dW]AV[Aib]HL-NH2; N-terminus assumed)", 25.6),
    ("CCCC(CCC)(NC(=O)[C@@H](NC(=O)[C@H](C)NC(=O)[C@@H](Cc1c[nH]c2ccccc12)NC(=O)[C@H](CCC(N)=O)NC(=O)[C@H](N)Cc1ccccc1)C(C)C)C(=O)N[C@@H](Cc1c[nH]cn1)C(=O)N[C@@H](CC(C)C)C(N)=O", 23.3),
    ("CC[C@H](C)[C@H](NC(=O)[C@H](Cc1c[nH]cn1)NC(=O)C(C)(C)NC(=O)[C@@H](NC(=O)[C@H](C)NC(=O)[C@H](Cc1c[nH]c2ccccc12)NC(=O)[C@H](CCC(N)=O)NC(=O)[C@H](N)Cc1ccccc1)C(C)C)C(N)=O [SEQ ID: 7, D-Phe-Gln-Trp-Ala-Val-Aib-His-Ile-NH2] (H-[dF]QWAV[Aib]HI-NH2; N-terminus assumed)", 24.5),
]

----------
System: U87MG (Glioblastoma)
Experiment: MTT cytotoxicity assay, 48 hours (Example 14)
Format: cell-based
Settings: 1 μM
Non-standard residues stand in square brackets, D forms with d. Residues, ends and D or L forms follow the SMILES beside them. Deg = CCC(N)(CC)C(=O)O
OBSERVATION_TYPE: Percentage cytotoxicity (%)

# COMPOUND, OBSERVATION_TYPE, TEST_RESULT
records = [
    ("CCC(CC)(NC(=O)[C@H](Cc1c[nH]c2ccccc12)NC(=O)[C@H](CCC(N)=O)NC(=O)[C@H](N)Cc1ccccc1)C(=O)N[C@H](C(=O)NCC(=O)N[C@@H](Cc1c[nH]cn1)C(=O)N[C@@H](CC(C)C)C(N)=O)C(C)C [SEQ ID: 9, D-Phe-Gln-Trp-Deg-Val-Gly-His-Leu-NH2] (H-[dF]QW[Deg]VGHL-NH2; N-terminus assumed)", "Percentage cytotoxicity", 10.0),
]

----------
Examples of compounds with documented Percentage cytotoxicity follow.
Tested on: SW620 (colon)
Experiment: MTT cytotoxicity assay, 48 hours (Example 14)
Type: cell-based, human
Conditions: SW620, 10 nM
Excerpt: The cytotoxic effect of peptide sequences SEQ ID NO: 9, SEQ ID NO: 10, SEQ ID NO: 11 and SEQ ID NO: 12, were studied by MTT assay which is based on the principle of uptake of MTT[3-[4,5-dimethylthiazol-2-yl]-2,5-diphenyl tetrazolium bromide], a tetrazolium salt by the metabolically active cells where it is metabolized by active mitochondria into a blue colored formazan product which can be read spectrophotometrically. Tumor cells KB (oral squamous). […]
Non-standard residues stand in square brackets, D forms with d. Residues, ends and D or L forms follow the SMILES beside them. *: point of attachment. Octanoyl = CCCCCCCC(=O)*; Ac5c = NC1(C(=O)O)CCCC1; Deg = CCC(N)(CC)C(=O)O; Aib = CC(C)(N)C(=O)O

# COMPOUND, ASSAYED_TARGET, Percentage cytotoxicity / %
data = [
    ("CC(C)C[C@H](NC(=O)[C@H](Cc1c[nH]cn1)NC(=O)C1(NC(=O)[C@@H](NC(=O)[C@H](C)NC(=O)[C@H](Cc2c[nH]c3ccccc23)NC(=O)[C@H](CCC(N)=O)NC(=O)[C@H](N)Cc2ccccc2)C(C)C)CCCC1)C(N)=O [SEQ ID: 10, D-Phe-Gln-Trp-Ala-Val-Ac5c-His-Leu-NH2] (H-[dF]QWAV[Ac5c]HL-NH2; N-terminus assumed)", "SW620 (colon)", 25.5),
    ("CCCCCCCC(=O)N[C@H](Cc1ccccc1)C(=O)N[C@@H](CCC(N)=O)C(=O)N[C@@H](Cc1c[nH]c2ccccc12)C(=O)N[C@@H](C)C(=O)N[C@H](C(=O)NC(C)(C)C(=O)N[C@@H](Cc1c[nH]cn1)C(=O)N[C@@H](CC(C)C)C(N)=O)C(C)C [SEQ ID: 12] (Octanoyl-[dF]QWAV[Aib]HL-NH2)", "SW620 (colon)", 36.1),
    ("CCC(CC)(NC(=O)[C@H](Cc1c[nH]c2ccccc12)NC(=O)[C@H](CCC(N)=O)NC(=O)[C@H](N)Cc1ccccc1)C(=O)N[C@H](C(=O)NCC(=O)N[C@@H](Cc1c[nH]cn1)C(=O)N[C@@H](CC(C)C)C(N)=O)C(C)C [SEQ ID: 9, D-Phe-Gln-Trp-Deg-Val-Gly-His-Leu-NH2] (H-[dF]QW[Deg]VGHL-NH2; N-terminus assumed)", "SW620 (colon)", 33.2),
]

----------
Recorded Percentage cytotoxicity, one value per entry.
System: HBL 100 (Breast)
Assay: MTT cytotoxicity assay, 48 hours (Example 14)
Type: cell-based, human
Settings: HBL100, 100 nM
Non-standard residues stand in square brackets, D forms with d. Residues, ends and D or L forms follow the SMILES beside them. *: point of attachment. Octanoyl = CCCCCCCC(=O)*; Ac5c = NC1(C(=O)O)CCCC1; Deg = CCC(N)(CC)C(=O)O; Aib = CC(C)(N)C(=O)O; Butyryl = CCCC(=O)*

# COMPOUND, Percentage cytotoxicity [%]
rows = [
    ("CCCCCCCC(=O)N[C@H](Cc1ccccc1)C(=O)N[C@@H](CCC(N)=O)C(=O)N[C@@H](Cc1c[nH]c2ccccc12)C(=O)N[C@@H](C)C(=O)N[C@H](C(=O)NC(C)(C)C(=O)N[C@@H](Cc1c[nH]cn1)C(=O)N[C@@H](CC(C)C)C(N)=O)C(C)C [SEQ ID: 12] (Octanoyl-[dF]QWAV[Aib]HL-NH2)", 23.6),
    ("CC(C)C[C@H](NC(=O)[C@H](Cc1c[nH]cn1)NC(=O)C1(NC(=O)[C@@H](NC(=O)[C@H](C)NC(=O)[C@H](Cc2c[nH]c3ccccc23)NC(=O)[C@H](CCC(N)=O)NC(=O)[C@H](N)Cc2ccccc2)C(C)C)CCCC1)C(N)=O [SEQ ID: 10, D-Phe-Gln-Trp-Ala-Val-Ac5c-His-Leu-NH2] (H-[dF]QWAV[Ac5c]HL-NH2; N-terminus assumed)", 21.2),
    ("CCC(CC)(NC(=O)[C@H](Cc1c[nH]c2ccccc12)NC(=O)[C@H](CCC(N)=O)NC(=O)[C@H](N)Cc1ccccc1)C(=O)N[C@H](C(=O)NCC(=O)N[C@@H](Cc1c[nH]cn1)C(=O)N[C@@H](CC(C)C)C(N)=O)C(C)C [SEQ ID: 9, D-Phe-Gln-Trp-Deg-Val-Gly-His-Leu-NH2] (H-[dF]QW[Deg]VGHL-NH2; N-terminus assumed)", 22.4),
    ("CCCC(=O)N[C@H](Cc1ccccc1)C(=O)N[C@@H](CCC(N)=O)C(=O)N[C@@H](Cc1c[nH]c2ccccc12)C(=O)N[C@@H](C)C(=O)N[C@H](C(=O)NC(C)(C)C(=O)N[C@@H](Cc1c[nH]cn1)C(=O)N[C@@H](CC(C)C)C(N)=O)C(C)C [SEQ ID: 11] (Butyryl-[dF]QWAV[Aib]HL-NH2)", 22.7),
]
